experiment: in vitro; settings: human

compound: CN[C@@H]1C[C@H]2O[C@@](C)([C@@H]1OC)n1c3ccccc3c3c4c(c5c6ccccc6n2c5c31)C(=O)NC4 [Staurosporine, staurosporine, reference compound]
unit.annotation: %
viability at 0.041 µM: 36.3

* * *

test: PC3 cell line toxicity (Cell titer Glo viability); assay type: cell-based; conditions: human, PC3 prostate adenocarcinoma cells; PC3, 0.014 uM, 72 h
endpoint: viability at 72 h, 0.014 µM (%)

compound: CN[C@@H]1C[C@H]2O[C@@](C)([C@@H]1OC)n1c3ccccc3c3c4c(c5c6ccccc6n2c5c31)C(=O)NC4 [Staurosporine, staurosporine, reference compound]
experimental.result: 34.5

* * *

test: in vitro; conditions: human

molecule: CN[C@@H]1C[C@H]2O[C@@](C)([C@@H]1OC)n1c3ccccc3c3c4c(c5c6ccccc6n2c5c31)C(=O)NC4 [Staurosporine, staurosporine, reference compound]
viability at 0.12 µM [%]: 27.7

* * *

target: cannabinoid receptor 2 (CNR2) (Homo sapiens); assay: CB2 receptor agonist assay (cAMP Hunter eXpress, CNR2 CHO-K1); conditions: agonist, cAMP, Forskolin-stimulated CNR2 CHO-K1
Sequence (P34972 whole entry): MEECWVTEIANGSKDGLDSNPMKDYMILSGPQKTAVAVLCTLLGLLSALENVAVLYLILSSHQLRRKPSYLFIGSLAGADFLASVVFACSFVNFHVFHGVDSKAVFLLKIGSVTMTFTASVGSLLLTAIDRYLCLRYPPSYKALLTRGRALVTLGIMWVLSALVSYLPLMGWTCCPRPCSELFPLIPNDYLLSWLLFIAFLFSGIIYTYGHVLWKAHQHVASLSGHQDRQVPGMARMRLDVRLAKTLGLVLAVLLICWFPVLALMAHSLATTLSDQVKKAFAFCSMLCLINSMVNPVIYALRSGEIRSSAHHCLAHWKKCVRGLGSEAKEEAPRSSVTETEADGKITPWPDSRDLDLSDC
pEC50: −log10 of the molar value.
endpoint: pEC50

molecule: CCCCCc1cc(O)c2c(c1)OC(C)(C)C1CCC(CO)=CC21 (stereo not shown) [11-hydroxy-THC]
experimental.result: 7.29

* * *

experiment: PC3 cell line toxicity (Cell titer Glo viability); format: cell-based; details: human, PC3 prostate adenocarcinoma cells; PC3, 0.00051 uM, 72 h

compound: CN[C@@H]1C[C@H]2O[C@@](C)([C@@H]1OC)n1c3ccccc3c3c4c(c5c6ccccc6n2c5c31)C(=O)NC4 [Staurosporine, staurosporine, reference compound]
viability at 72 h, 0.00051 µM: 92.2%

* * *

biological target: Recombinant human ALOX15 (Arachidonate 15-Lipoxygenase) (Homo sapiens); construct: full length encompassing amino acids 2-662(end); FLAG (N); purchased BPS Biosciences 50220; experiment: Biochemical LOX-15 assay
Sequence (P16050 2-662): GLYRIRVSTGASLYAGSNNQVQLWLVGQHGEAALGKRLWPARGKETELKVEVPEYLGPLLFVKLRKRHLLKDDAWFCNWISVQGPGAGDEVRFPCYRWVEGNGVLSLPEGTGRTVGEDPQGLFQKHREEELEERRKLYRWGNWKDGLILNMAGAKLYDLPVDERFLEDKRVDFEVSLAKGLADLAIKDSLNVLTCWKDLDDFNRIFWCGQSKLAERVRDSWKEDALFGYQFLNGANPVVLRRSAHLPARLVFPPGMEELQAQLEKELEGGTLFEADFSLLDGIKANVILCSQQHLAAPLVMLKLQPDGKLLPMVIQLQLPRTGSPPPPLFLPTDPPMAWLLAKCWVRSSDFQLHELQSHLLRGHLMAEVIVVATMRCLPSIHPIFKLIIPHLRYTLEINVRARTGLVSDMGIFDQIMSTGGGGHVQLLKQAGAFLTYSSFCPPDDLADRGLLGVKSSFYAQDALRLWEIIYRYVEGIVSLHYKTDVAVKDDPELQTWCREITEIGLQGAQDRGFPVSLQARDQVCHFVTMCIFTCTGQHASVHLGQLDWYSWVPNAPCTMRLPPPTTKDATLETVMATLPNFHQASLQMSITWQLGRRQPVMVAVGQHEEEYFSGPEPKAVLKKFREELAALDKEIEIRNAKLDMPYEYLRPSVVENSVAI
pIC50: −log10 of the molar value.
endpoint: pIC50

compound: CC(C)=CCCC1(C)C=CC2=C(O1)C(=O)c1ccccc1C2=O (stereo not shown)
target.entity: Recombinant human ALOX15 (Arachidonate 15-Lipoxygenase) (Homo sapiens)
experimental.result: < 5.00

* * *

Parameter: pIC50. Scope: all listed entries.
test system: IL-1β; test: Inhibitory activity on IL-1β
pIC50: −log10 of the molar value.

molecule: CCCCCc1cc(O)c2c(c1O)OC(C)(CCC=C(C)C)C=C2 (centres unmarked)
result.qualifier: =
pIC50: 5.48
--
molecule: CCCCCC1=C(NCCC)C(=O)C2=C(OC(C)(CCC=C(C)C)C=C2)C1=O (centres unmarked)
result.qualifier: <
pIC50: 5.00
--
molecule: CC(C)=CCCC1(C)C=CC2=C(O1)C(=O)c1ccccc1C2=O (centres unmarked)
result.qualifier: <
pIC50: 5.00
--
molecule: CCCCCc1cc(OC(C)=O)c2c(c1OC(C)=O)OC(C)(CCC=C(C)C)C=C2 (centres unmarked)
result.qualifier: =
pIC50: 6.01
--
molecule: CCCCCC1=C(NCC)C(=O)C2=C(OC(C)(CCC=C(C)C)C=C2)C1=O (centres unmarked)
result.qualifier: <
pIC50: 5.00
--
molecule: CCCCCC1=CC(=O)C2=C(O[C@](C)(CCC=C(C)C)C=C2)C1=O
result.qualifier: =
pIC50: 6.27
--
molecule: CCCCCC1=CC(=O)C2=C(OC(C)(CCC=C(C)C)C=C2)C1=O (centres unmarked)
result.qualifier: =
pIC50: 5.76
--
molecule: CCCCCc1cc(OC)c2c(c1OC)OC(C)(CCC=C(C)C)C=C2 (centres unmarked)
result.qualifier: <
pIC50: 5.00
